- TARGET ENTITY: T1, extracellular domain of FGFR2c protein (Example 1) (UniProt P21802 22-377)
- T1 construct: extracellular domain
- T1 sequence (P21802 22-377): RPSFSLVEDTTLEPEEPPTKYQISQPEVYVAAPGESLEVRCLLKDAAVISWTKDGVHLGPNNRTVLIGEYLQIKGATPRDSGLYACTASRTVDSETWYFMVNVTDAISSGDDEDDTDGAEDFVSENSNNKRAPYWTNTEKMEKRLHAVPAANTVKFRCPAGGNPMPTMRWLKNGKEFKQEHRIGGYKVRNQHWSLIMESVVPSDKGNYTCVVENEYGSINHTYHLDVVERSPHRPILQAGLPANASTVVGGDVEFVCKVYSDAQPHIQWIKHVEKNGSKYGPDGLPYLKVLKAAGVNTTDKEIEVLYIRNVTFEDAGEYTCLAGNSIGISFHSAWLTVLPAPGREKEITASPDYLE
- RUN DESCRIPTION: phage ELISA
# reported OD (450 nm) value; entries follow
API doc: respond with a numeric literal and nothing else, no unit.

# annotated cases, reported OD (450 nm) value shown
{"BINDER": "3C7 scFv displayed on phage (scFv) scFv: EIQLQQSGAELVKPGASVKMSCKASGYIFRNYYIHWVKRTPGQGLEWIGAIYPDNGDTSYNQRFKVKATLTADTSSSTAYMQLSSLTSEDSAVYYCARAFTYWGQGTTLTVSSGGGGSGGGGSGGGGSDIQMIQSPASLSASVGETVTITCGASENIYGALNWYQRKQGKSPQLLIYGATNLADGMSSRFSGSGSGRQYSLKISSLHPDDVATYYCQNVLSTPYTFGGGTKLEIK", "OD (450 nm) value": 0.04}
{"BINDER": "3C9 scFv displayed on phage (scFv) scFv: EIQLQQSGAELVKPGASVKMSCKASGYIFRYYNMHWVKRTPGQGLEWIGLIYPDNGDTSYNQKFKGKATLTADTSSSTAYMQLSSLTSEDSAVYYCARGGLDYWGQGTTLTVSSGGGGSGGGGSGGGGSDIQMIQSPASLSASVGETVTITCGASENIYGALNWYQRKQGKSPQLLIYGATNLADGMSSRFSGSGSGRQYSLKISSLHPDDVATYYCQNVLSTPYTFGGGTKLEIK", "OD (450 nm) value": 0.033}

With those in mind, consider the next binder.
I'd like to know its OD (450 nm) value. The binder in question is 1G6 scFv displayed on phage (scFv) scFv: EIQLQQSGAELVKPGASVKMSCKASGYTFRYYNMHWVKRTPGQGLEWIGLIYPDNGDTSYNQKFKGKATLTADTSSSTAYMQLSSLTSEDSAVYYCARGGLDYWGQGTSLTVSSGGGGSGGGGSGGGGSNIVMTQSHKFMSTSVGDRVSITCKASQDVNTDVAWYQQKPGQSPKLLIYSASYRYTGVPTRFTGSGSGTDFTFTISGVQAEDLADYYCQQHYNTPYTFGGGTKLELK
0.073
